- PROCEDURE_DETAILS: PET hydrolysis, aromatic products released after 48 h (umol product/mg enzyme); higher = more PET depolymerization activity
- CONDITION_DESCRIPTION: substrate: cryPow; 60 °C; pH 7.5
REPORTED_ENDPOINT: PET hydrolysis
Please respond with just the number, no unit label.

Memo: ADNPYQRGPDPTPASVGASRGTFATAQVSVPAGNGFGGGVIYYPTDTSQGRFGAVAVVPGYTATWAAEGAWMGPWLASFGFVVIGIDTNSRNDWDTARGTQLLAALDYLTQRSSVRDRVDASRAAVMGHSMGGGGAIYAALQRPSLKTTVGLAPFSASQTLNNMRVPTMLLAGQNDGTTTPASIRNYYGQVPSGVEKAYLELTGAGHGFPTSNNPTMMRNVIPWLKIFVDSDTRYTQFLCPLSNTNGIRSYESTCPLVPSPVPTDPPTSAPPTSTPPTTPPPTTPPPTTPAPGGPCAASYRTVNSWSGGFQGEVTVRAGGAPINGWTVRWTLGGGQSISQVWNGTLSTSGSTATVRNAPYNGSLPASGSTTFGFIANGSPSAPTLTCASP [TEP013] , reported PET hydrolysis: 10

----------
- PROCEDURE_DETAILS: PET hydrolysis, aromatic products released after 48 h (umol product/mg enzyme); higher = more PET depolymerization activity
- CONDITION_DESCRIPTION: substrate: cryPow; 60 °C; pH 6.5
REPORTED_ENDPOINT: PET hydrolysis

// PET hydrolysis value for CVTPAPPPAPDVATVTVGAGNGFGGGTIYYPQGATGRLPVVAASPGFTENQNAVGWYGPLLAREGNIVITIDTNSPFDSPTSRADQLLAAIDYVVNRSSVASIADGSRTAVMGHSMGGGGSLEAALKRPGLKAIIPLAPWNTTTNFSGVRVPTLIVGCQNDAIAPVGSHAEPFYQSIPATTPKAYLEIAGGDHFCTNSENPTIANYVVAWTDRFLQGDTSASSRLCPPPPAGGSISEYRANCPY [ESM050] : 132

Just so you know, measured PET hydrolysis for ADNPYQRGPDPTLASVSAQRGTFATAQVAVPAGDGFGGGMIYYPTDTSQGTFGAVAIVPGYTARFSVEEAWMGHWLASFGFVVIGVETNSTNDFDTARGTQLLAALDYLTQRSSVRDRVDASRQSVVGHSMGGGGALYAAGQRASLKAAVGLAPYKPSGNPTNVRVPTMIISGQNDTVVTPSYATGLYNTLPATTESAYMEFTGADHLFPTRANTLEMRILIPWLKIFVDSDNRYSQFLCPLQDSTGIRGYRSTCPFLPNPTTSPSTTAPTTPPTTPPTTPPTGACSATYRTVNSWPGGFQGEVTVSAGSTPVDGWAVRWTLASGQAVTQVWNGALSVSGSAVTVRNTTYNGSLGANASTTFGFLASGSPTPVSLTCTSP [ESM033] came out at < 3

Memo: ADNPYERGPDPTERSIEAARGPFGVSTERVGSLGVSDFGGATIYHPTDRSQTYGAIAISPGFTAGWTSLSWLGERLASQGFVVIGIDTITRLDQPGSRGRQLLAALDYATTRSNARALIDAQRLAVAGHSMGGGGTLEAAAERPSLKAAIPLAPWNLDKSWAEVRTPTLIIGGESDNIAAVNTHSIPFYNSLSNAREKAYMEIDNGTHFFPNTANTLMAKYMISWMKRYIDDDTRYEQFLCPPPDDRGISEYRHTCPGS [DP088] , reported PET hydrolysis: < 3

meta.source: the supplement of paper PMC12455559
